- ASSAYED_SYSTEM: T1, human MSLN-R3-his protein (human, UniProt Q13421 487-598)
- T1 construct: Region 3 of human MSLN, His-tagged; also called human MSLN-R3 protein; hMSLN-R3-his; not shown: His tag
- T1 sequence (Q13421 495-606): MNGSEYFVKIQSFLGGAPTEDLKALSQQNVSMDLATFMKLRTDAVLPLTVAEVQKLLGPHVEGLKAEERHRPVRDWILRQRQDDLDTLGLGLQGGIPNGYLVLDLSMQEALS
- ASSAY_INFO: ELISA, coated MSLN-R3
Answer each item with its documented OD450 at 0.0001 nM.
The number alone won't do; follow it with the unit.

Please review the following examples before continuing.
S009-F1.57.1 (antibody, human IgG1, kappa, V domains shown, Human-murine chimeric antibody, human IgG1/kappa constant regions) VH: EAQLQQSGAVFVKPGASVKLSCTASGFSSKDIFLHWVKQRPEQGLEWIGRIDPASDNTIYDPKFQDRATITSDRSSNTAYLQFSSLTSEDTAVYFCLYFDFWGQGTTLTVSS VL: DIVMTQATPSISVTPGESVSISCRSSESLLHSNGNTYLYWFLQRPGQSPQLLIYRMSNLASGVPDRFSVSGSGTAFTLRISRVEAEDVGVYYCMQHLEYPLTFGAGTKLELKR
0.05 OD450
S009-F1.56.1 (antibody, human IgG1, kappa, V domains shown, Human-murine chimeric antibody, human IgG1/kappa constant regions) VH: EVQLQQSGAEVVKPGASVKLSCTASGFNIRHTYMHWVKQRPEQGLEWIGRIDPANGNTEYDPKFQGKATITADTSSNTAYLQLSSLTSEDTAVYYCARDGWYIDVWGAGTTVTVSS VL: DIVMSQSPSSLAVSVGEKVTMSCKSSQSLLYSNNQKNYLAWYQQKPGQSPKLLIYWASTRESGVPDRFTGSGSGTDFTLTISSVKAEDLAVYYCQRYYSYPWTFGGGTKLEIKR
0.05 OD450

Attention now shifts to the item below.
Consider S009-F1.59.1 (antibody, human IgG1, kappa, V domains shown, Human-murine chimeric antibody, human IgG1/kappa constant regions) VH: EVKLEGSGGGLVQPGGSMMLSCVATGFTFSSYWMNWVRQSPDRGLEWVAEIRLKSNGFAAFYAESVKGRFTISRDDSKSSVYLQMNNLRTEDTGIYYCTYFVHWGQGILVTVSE VL: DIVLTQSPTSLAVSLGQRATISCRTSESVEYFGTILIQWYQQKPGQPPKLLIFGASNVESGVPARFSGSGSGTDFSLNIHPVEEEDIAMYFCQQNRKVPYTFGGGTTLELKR . Its measured OD450 at 0.0001 nM is 0.05 OD450
